Could you please report measured pIC50 for the items listed next?
Target: MRSA Pyk (Staphylococcus aureus, UniProt Q6GG09)
Sequence (Q6GG09 whole entry): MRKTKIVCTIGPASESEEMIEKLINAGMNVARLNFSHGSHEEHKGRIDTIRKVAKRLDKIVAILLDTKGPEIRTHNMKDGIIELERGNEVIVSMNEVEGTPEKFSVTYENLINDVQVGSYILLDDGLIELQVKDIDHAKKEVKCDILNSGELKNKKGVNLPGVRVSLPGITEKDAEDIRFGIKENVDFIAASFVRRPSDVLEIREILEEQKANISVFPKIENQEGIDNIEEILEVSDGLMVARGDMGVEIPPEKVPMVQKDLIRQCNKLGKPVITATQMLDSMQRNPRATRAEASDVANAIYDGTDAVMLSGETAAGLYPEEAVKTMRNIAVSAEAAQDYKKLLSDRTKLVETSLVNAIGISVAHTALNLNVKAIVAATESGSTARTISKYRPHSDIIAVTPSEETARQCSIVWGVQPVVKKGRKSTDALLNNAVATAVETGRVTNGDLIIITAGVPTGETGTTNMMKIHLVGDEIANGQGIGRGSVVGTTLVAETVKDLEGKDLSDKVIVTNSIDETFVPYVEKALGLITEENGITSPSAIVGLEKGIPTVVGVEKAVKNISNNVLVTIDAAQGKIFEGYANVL
Test Method Notes: MRSA pyruvate kinase (PK) activity, continuous LDH-coupled assay
pIC50: −log10 of the molar value. Where a name gives a salt, the structure may show the parent alone.

Below are worked cases with known answers.
Compound | Target | Endpoint Name | Measured Value
O=C(NCCN1CCN(C(=O)CCC(=O)N2CCN(CCNC(=O)c3c(/C=C/c4ccc(Cl)cc4)[nH]c4cc(Br)ccc34)CC2)CC1)c1c(/C=C/c2ccc(Cl)cc2)[nH]c2cc(Br)ccc12 | MRSA Pyk (Staphylococcus aureus, UniProt Q6GG09) | pIC50 | < 6.00
COCCN1CCC(NCCNC(=O)c2c(-c3cc4cc(Cl)ccc4[nH]3)[nH]c3cc(Br)ccc23)CC1 | MRSA Pyk (Staphylococcus aureus, UniProt Q6GG09) | pIC50 | > 7.00
CN(C)CCNCCNC(=O)c1c(-c2cc3cc(Cl)ccc3[nH]2)[nH]c2cc(Br)ccc12 | MRSA Pyk (Staphylococcus aureus, UniProt Q6GG09) | pIC50 | > 7.00
CN(C)CCNC(=O)c1c(/C=C/c2ccc(Cl)cc2)[nH]c2cc(Br)ccc12 | MRSA Pyk (Staphylococcus aureus, UniProt Q6GG09) | pIC50 | > 7.00
CN1CCN(CCC(=O)c2c(/C=C/c3ccc(Cl)cc3)[nH]c3cc(Br)ccc23)CC1 [Compound 7, Hydrochloride] | MRSA Pyk (Staphylococcus aureus, UniProt Q6GG09) | pIC50 | 6.00 to 7.00
CNC(=O)c1c(CCc2ccc(Cl)cc2)[nH]c2cc(Br)ccc12 | MRSA Pyk (Staphylococcus aureus, UniProt Q6GG09) | pIC50 | < 6.00
NC(=O)[C@@H]1CCCN1CCCCNC(=O)c1c(-c2cc3cc(Cl)ccc3[nH]2)[nH]c2cc(Br)ccc12 | MRSA Pyk (Staphylococcus aureus, UniProt Q6GG09) | pIC50 | > 7.00
O=C(NCCN1CCN(C(=O)CO)CC1)c1c(/C=C/c2ccc(Cl)cc2)[nH]c2cc(Br)ccc12 | MRSA Pyk (Staphylococcus aureus, UniProt Q6GG09) | pIC50 | > 7.00
O=C(NCCO)c1c(/C=C/c2ccc(Cl)cc2)[nH]c2cc(Br)ccc12 | MRSA Pyk (Staphylococcus aureus, UniProt Q6GG09) | pIC50 | 6.00 to 7.00
CNC(=O)C(O)c1c(/C=C/c2ccc(Cl)cc2)[nH]c2cc(Br)ccc12 (stereo not drawn) | MRSA Pyk (Staphylococcus aureus, UniProt Q6GG09) | pIC50 | 6.00 to 7.00

Fill in pIC50 for each of the 5 compounds listed.
1. COCCNC(=O)CCCC(=O)c1c(-c2cc3cc(Cl)ccc3[nH]2)[nH]c2cc(Br)ccc12
2. CC(C)(C)OC(=O)N1CCN(C(=O)c2c(-c3cc4cc(Cl)ccc4[nH]3)[nH]c3cc(Br)ccc23)C(C(=O)O)C1 (stereo not drawn)
3. CN(C)CCc1c(-c2nc3cc(Cl)c(Cl)cc3[nH]2)[nH]c2cc(Br)ccc12
4. Clc1ccc2[nH]c(-c3cc4ccc(Br)cc4[nH]3)nc2n1
5. CN1CCCN(CCCCNC(=O)c2c(-c3cc4cc(Cl)ccc4[nH]3)[nH]c3cc(Br)ccc23)CC1

["> 7.00", "> 7.00", "> 7.00", "< 6.00", "> 7.00"]
